Catalogue of CRF2R Emax values
Biological target: T1, corticotropin releasing factor 2 receptor; also: reference of the scale not given here
T1 sequence (Q13324 whole entry, species assumed, looked up): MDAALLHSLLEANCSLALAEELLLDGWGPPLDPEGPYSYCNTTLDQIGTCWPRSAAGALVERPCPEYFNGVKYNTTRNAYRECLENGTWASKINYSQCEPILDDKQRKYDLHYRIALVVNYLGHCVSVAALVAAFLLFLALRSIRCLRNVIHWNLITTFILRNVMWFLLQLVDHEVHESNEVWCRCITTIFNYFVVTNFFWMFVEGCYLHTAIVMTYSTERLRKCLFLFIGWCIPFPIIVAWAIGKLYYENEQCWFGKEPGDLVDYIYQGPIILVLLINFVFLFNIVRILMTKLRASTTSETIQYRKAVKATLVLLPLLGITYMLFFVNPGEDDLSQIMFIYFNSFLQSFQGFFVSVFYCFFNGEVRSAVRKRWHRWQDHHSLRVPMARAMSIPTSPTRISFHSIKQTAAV
Experiment: cell-based or functional assay
Ends that are not written are not given here.
Use % as the unit, but write only the number.

Completed entries (count: 5):
[[record]]
binder = "DNPSLSIDLPLQLLRTLLELARTQSQRERAEQNAIIFASV-NH2 [SEQ ID NO 176]"
observationtype = "CRF2R Emax"
assayresult = 90.2

[[record]]
binder = "ZGPPISIDLPIELLRKMIEIEKQEKEKQQAANNRLLLDTI (C-terminal amide) [SEQ ID NO 76]"
observationtype = "CRF2R Emax"
assayresult = 76

[[record]]
binder = "ZGPPISIDLPIDLLRKMIEIEKQEKEKQQAANNRLLLDTI (C-terminal amide) [SEQ ID NO 28]"
observationtype = "CRF2R Emax"
assayresult = 15

[[record]]
binder = "ZGPPISIDVPFQLLRILIEIEKQEKEKQQATTNARILARV (C-terminal amide) [SEQ ID NO 171]"
observationtype = "CRF2R Emax"
assayresult = 100

[[record]]
binder = "ZGPPISIDLPAYLLRKMIEIEKQEKEKQQAANNRLLLDTI (C-terminal amide) [SEQ ID NO 32]"
observationtype = "CRF2R Emax"
assayresult = 98


Exercise: Returns the measured CRF2R Emax for the input binder. Input: DNPSLSIDLPLLLLRTLLELARTQSQRERAEQNAIIFASV-NH2 [SEQ ID NO 174]
Solution: 97.2

Exercise: Returns the measured CRF2R Emax for the input binder. Input: IVLSLDVPIGLLQILIEIEKQEKEKQQAANNARILARV-NH2 [SEQ ID NO 166]
Solution: 99

Exercise: Returns the measured CRF2R Emax for the input binder. Input: ZGPPISIDLPRYLLRKMIEIEKQEKEKQQAANNRLLLDTI (C-terminal amide) [SEQ ID NO 65]
Solution: 64

Exercise: Returns the measured CRF2R Emax for the input binder. Input: ZGPPISIDLPYTLLRKMIEIEKQEKEKQQAANNRLLLDTI (C-terminal amide) [SEQ ID NO 200]
Solution: 100

Exercise: Returns the measured CRF2R Emax for the input binder. Input: IVLSLDVPIGLLQILLEQTRADAAREQATTNARILARV-NH2 [SEQ ID NO 126]
Solution: 91

Exercise: Returns the measured CRF2R Emax for the input binder. Input: ZGPPISIDLPIYLLRKMIEIEKQEKEKQQATTNARILARV (C-terminal amide) [SEQ ID NO 149]
Solution: 95.5

Exercise: Returns the measured CRF2R Emax for the input binder. Input: IVLSLDVPIGLLQILLEQTKADQLAQQAHSNRKLLDIA-NH2 [SEQ ID NO 159]
Solution: 62
